- target of assay: Genome polyprotein (Coxsackievirus B3 (strain Nancy), UniProt P03313)
- Sequence (P03313 1541-1723 limits assumed): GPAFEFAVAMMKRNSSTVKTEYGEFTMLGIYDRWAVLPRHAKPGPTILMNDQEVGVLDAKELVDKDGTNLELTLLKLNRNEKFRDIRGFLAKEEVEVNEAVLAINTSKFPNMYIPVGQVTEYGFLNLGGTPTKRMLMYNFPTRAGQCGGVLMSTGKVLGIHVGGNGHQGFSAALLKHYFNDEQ
- assay details: Inhibition of coxsackievirus B3 3C protease by fluorescence plate reader analysis
Reported log10(IC50) values for the following compounds.
The base-10 logarithm of IC50, taken with IC50 in µM, is what appears here.

Recorded log10(IC50), per entry:
| smiles text | log10(IC50) |
| --- | --- |
| O=C(O)c1ccc(/C=C2\C(=O)N(c3ccc(Cl)c(Cl)c3)N=C2c2ccccc2)cc1 | 2.10 |
| O=C(O)c1ccc(/C=C2\C(=O)N(c3ccc(Cl)cc3)N=C2c2ccccc2)cc1 | 1.40 |
| COc1ccc(N2N=C(c3ccccc3)/C(=C/c3ccc(C(=O)O)cc3)C2=O)cc1 | 1.22 |

Next, consider the following compound.
Quick one: log10(IC50) for "O=C(O)c1ccc(/C=C2\C(=O)N(c3cccc([N+](=O)[O-])c3)N=C2c2ccccc2)cc1" ?
0.98

====

- target of assay: Genome polyprotein (Coxsackievirus B3 (strain Nancy)) (UniProt P03313)
- Sequence (P03313 whole entry): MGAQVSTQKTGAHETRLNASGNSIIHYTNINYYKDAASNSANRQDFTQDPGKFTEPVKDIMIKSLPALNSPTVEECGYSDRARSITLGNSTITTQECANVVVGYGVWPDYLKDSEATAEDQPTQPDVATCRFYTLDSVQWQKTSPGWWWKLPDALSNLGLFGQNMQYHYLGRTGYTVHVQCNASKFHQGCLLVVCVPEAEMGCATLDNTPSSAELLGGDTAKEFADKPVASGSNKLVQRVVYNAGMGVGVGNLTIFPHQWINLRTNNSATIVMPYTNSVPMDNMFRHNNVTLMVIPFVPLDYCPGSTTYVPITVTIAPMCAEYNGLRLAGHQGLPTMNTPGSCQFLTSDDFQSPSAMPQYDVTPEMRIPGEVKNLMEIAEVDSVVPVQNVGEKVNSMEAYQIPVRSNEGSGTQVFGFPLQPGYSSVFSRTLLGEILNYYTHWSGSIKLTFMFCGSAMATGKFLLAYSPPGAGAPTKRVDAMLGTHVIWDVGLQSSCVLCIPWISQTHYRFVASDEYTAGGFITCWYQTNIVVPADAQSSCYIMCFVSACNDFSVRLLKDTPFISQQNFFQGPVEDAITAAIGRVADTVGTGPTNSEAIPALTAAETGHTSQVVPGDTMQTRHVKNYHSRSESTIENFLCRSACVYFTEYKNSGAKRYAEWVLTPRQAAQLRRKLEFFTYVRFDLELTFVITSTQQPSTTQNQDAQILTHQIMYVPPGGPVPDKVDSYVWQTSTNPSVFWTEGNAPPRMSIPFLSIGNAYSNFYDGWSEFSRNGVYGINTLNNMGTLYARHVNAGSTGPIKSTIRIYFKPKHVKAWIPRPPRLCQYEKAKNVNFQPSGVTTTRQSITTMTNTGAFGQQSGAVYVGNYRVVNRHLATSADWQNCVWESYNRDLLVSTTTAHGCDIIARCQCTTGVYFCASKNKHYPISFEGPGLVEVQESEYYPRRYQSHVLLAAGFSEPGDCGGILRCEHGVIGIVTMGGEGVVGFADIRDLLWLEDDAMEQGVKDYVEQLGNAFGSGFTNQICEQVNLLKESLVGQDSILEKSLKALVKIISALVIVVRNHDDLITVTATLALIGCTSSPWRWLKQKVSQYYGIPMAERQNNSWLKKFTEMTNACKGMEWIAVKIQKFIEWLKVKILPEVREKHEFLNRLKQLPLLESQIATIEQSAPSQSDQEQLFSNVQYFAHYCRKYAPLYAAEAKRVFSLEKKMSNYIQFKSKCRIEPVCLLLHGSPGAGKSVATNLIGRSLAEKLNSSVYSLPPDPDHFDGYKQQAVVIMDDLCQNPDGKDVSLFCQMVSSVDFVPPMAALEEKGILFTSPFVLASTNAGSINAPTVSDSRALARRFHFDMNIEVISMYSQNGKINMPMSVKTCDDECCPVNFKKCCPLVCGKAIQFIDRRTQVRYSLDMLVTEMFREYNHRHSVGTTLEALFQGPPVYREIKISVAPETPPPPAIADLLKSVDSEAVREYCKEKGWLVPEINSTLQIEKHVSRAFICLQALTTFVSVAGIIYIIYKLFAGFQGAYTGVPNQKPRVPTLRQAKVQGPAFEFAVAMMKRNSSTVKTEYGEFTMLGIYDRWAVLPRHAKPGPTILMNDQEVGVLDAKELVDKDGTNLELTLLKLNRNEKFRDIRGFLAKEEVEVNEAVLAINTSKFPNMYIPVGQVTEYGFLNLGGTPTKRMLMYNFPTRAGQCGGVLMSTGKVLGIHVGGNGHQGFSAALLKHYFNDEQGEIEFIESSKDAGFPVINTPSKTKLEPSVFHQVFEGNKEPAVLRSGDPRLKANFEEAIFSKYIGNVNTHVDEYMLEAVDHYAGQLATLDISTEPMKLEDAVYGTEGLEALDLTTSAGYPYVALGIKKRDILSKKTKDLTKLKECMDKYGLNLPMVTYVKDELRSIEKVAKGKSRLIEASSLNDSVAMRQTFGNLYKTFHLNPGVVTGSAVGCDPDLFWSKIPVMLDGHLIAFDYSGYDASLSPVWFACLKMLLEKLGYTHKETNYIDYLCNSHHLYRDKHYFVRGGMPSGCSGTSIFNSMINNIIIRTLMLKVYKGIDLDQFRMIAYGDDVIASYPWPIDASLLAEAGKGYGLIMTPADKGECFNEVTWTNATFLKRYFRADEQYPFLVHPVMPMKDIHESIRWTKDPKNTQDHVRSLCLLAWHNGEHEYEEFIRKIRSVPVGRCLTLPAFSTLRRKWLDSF
- assay details: Inhibition of coxsackievirus B3 3C protease at 50 uM by fluorescence plate reader analysis
The source made the active and inactive calls. The calls are words filed in the database; no cut-off is given here.
readout type: inhibition

Recorded inhibition, per entry:
| smiles text | inhibition |
| --- | --- |
| O=C1/C(=C\c2ccccc2)C(c2ccccc2)=NN1c1ccc(Cl)cc1 | inactive |
| O=C1/C(=C\c2cccc([N+](=O)[O-])c2)C(c2ccccc2)=NN1c1ccccc1 | inactive |
| CC(C)c1ccc(N2N=C(c3ccccc3)/C(=C/c3ccc(C(=O)O)cc3)C2=O)cc1 | inactive |
| COc1cccc(/C=C2\C(=O)N(c3ccccc3)N=C2c2ccccc2)c1 | inactive |
| COc1ccc(/C=C2\C(=O)N(c3ccc(Cl)cc3)N=C2c2ccccc2)cc1 | inactive |
| CC(=O)Nc1ccc(/C=C2\C(=O)N(c3ccccc3)N=C2c2ccccc2)cc1 | inactive |

Quick one: inhibition for "O=C1/C(=C\c2ccccc2)C(c2ccccc2)=NN1c1ccccc1" ?
inactive

====

- target of assay: Replicase polyprotein 1ab (Severe acute respiratory syndrome-related coronavirus, UniProt P0C6X7)
readout type: pIC50
Hey, just a heads up that pIC50 is the negative log base 10 of the concentration in molar.

Recorded pIC50, per entry:
| smiles text | number |
| --- | --- |
| O=C(O)c1ccc(/C=C2\C(=O)N(c3ccc(F)cc3)N=C2c2ccccc2)cc1 | 5.17 |
| N#Cc1ccc(N2N=C(c3ccccc3)/C(=C/c3ccc(C(=O)O)cc3)C2=O)cc1 | 5.26 |
| O=C(O)c1ccc(/C=C2\C(=O)N(c3ccccc3)N=C2c2ccccc2)cc1 | 4.74 |
| O=C(O)c1ccc(/C=C2\C(=O)N(c3ccc(Cl)c(Cl)c3)N=C2c2ccccc2)cc1 | 4.61 |

Next, consider the following compound.
Quick one: pIC50 for "COc1ccc(N2N=C(c3ccccc3)/C(=C/c3ccc(C(=O)O)cc3)C2=O)cc1" ?
4.92

====

- target of assay: Replicase polyprotein 1ab (Severe acute respiratory syndrome-related coronavirus) (UniProt P0C6X7)
- assay details: Inhibition of SARS coronavirus 3C-like protease at 50 uM by fluorescence plate reader analysis
Calls of active or inactive are those of the source. The calls are words filed in the database; no cut-off is given here.
readout type: inhibition

Recorded inhibition, per entry:
| smiles text | inhibition |
| --- | --- |
| O=C1/C(=C\c2ccccc2)C(c2ccccc2)=NN1c1ccccc1 | inactive |
| O=C1/C(=C\c2cccc([N+](=O)[O-])c2)C(c2ccccc2)=NN1c1ccccc1 | inactive |
| CN(C)c1ccc(/C=C2\C(=O)N(c3ccccc3)N=C2c2ccccc2)cc1 | inactive |
| CC(=O)Nc1ccc(/C=C2\C(=O)N(c3ccc(Cl)cc3)N=C2c2ccccc2)cc1 | inactive |

Quick one: inhibition for "COc1cccc(/C=C2\C(=O)N(c3ccccc3)N=C2c2ccccc2)c1" ?
inactive

Quick one: inhibition for "O=C1/C(=C\c2ccc(O)cc2)C(c2ccccc2)=NN1c1ccc(Cl)cc1" ?
inactive

Quick one: inhibition for "O=C1/C(=C\c2ccccc2)C(c2ccccc2)=NN1c1ccc(Cl)cc1" ?
inactive
